method: reduction of polyQ htt aggregates in cells – imaging, exon1htt(103Q)mCFP cells, high-content imaging, primary screen (AID 483);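 further: compound exposure lasted 3 days before fixation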
condition-set: exon1htt(103Q)mCFP cell line, aggregate imaging, at 2 µM; stronger effect = higher value

- compound: "N#CCCN1CCN(S(=O)(=O)c2ccc(S(=O)(=O)NC3CCCCC3)cc2)CC1"
  inhibition of aggregation, %: -20.2
- compound: "CCOC(=O)N1CCC(NC(=O)c2cc(C(=O)NC3CCCC3)ccc2CO)CC1"
  inhibition of aggregation, %: 14.4
- compound: "COc1ccc(NC(=O)c2cc(C)on2)cc1OC"
  inhibition of aggregation, %: -26.4
- compound: "CN(C(=O)c1ccccn1)c1nnc(-c2cccnc2)s1"
  inhibition of aggregation, %: 11.2
- compound: "O=C(CN1CCC(NC(=O)c2ccc(F)cc2)CC1)NCc1ccccc1F"
  inhibition of aggregation, %: -0.1
- compound: "S=c1[nH]ncn1-c1ccccn1"
  inhibition of aggregation, %: -25.8
- compound: "CC1CCCCC1NC(=O)c1ccc(N2CCCC2=O)cc1 (configuration not stated)"
  inhibition of aggregation, %: -20.5
- compound: "c1ccc(N2CCN(Cc3cn4cccnc4n3)CC2)cc1"
  inhibition of aggregation, %: -18.4
- compound: "CCOC(=O)C1CCCN(c2c(N3CCN(c4ccccn4)CC3)c(=O)c2=O)C1 (configuration not stated)"
  inhibition of aggregation, %: 11.3
- compound: "CCCC(=O)Nc1cc(C)c2c(=O)oc3ccccc3c2n1"
  inhibition of aggregation, %: -6.5
- compound: "CCOc1ccc(S(=O)(=O)N2CCN(c3ccc(C)cc3C)CC2)cc1"
  inhibition of aggregation, %: -66.1
- compound: "CCOc1ccc(-c2nnc(N)s2)cc1"
  inhibition of aggregation, %: 29.9
- compound: "CCOC(=O)CSc1nc2c(c(-c3ccc(C)o3)c1C#N)CCCC2"
  inhibition of aggregation, %: -20.4
- compound: "O=C(CSc1nc(O)c(Cc2ccccc2)c(=O)[nH]1)Nc1ccccc1"
  inhibition of aggregation, %: 0.2
- compound: "Cc1ccc(NC2=NC3(CCCCC3)N=C(N)N2)c(C)c1"
  inhibition of aggregation, %: 4.5
- compound: "CCN(CC)C(=O)c1ccc(CS(=O)(=O)c2ccc(OC)cc2)o1"
  inhibition of aggregation, %: 1.4
- compound: "COCCn1nnnc1CN(Cc1cccnc1)Cc1cc2cc(OC)ccc2[nH]c1=O"
  inhibition of aggregation, %: -13.1
- compound: "CCOc1ccccc1CNC(=O)CCN1C(=O)COc2ccccc21"
  inhibition of aggregation, %: -12.2
- compound: "COc1cccc(C(=O)OCn2nnc3ccccc3c2=O)c1"
  inhibition of aggregation, %: 16.9
- compound: "O=S1(=O)C=C(Sc2nc3ccccc3s2)c2ccccc21"
  inhibition of aggregation, %: -17.5
- compound: "CCOC(=O)c1sc(Nc2nc3c(OC)cccc3s2)nc1C"
  inhibition of aggregation, %: -20.1
- compound: "COc1cccc(N2CCN(Cc3nc(N)nc(Nc4ccccc4)n3)CC2)c1"
  inhibition of aggregation, %: 18.2
- compound: "Cc1nn(-c2ccc(F)cc2)c2sc(C(=O)O)cc12"
  inhibition of aggregation, %: 3.7
- compound: "COc1ccc(NC(=O)CSc2nnc(Cc3cccn3C)n2-c2ccc(F)cc2)cc1OC"
  inhibition of aggregation, %: -0.2
- compound: "Clc1ccc(Nc2ncnc3c2cnn3-c2ccccc2)cc1"
  inhibition of aggregation, %: 19
- compound: "O=C(Nc1nccs1)c1cccc(NC(=O)C2CC2)c1"
  inhibition of aggregation, %: -6.6
- compound: "COc1cccc(-c2nc(CS(=O)(=O)CC(=O)Nc3cc(C)ccc3C)c(C)o2)c1"
  inhibition of aggregation, %: -2.5
- compound: "CCOc1ccc2nc(NC(=O)CSc3nnnn3C3CCCCC3)sc2c1"
  inhibition of aggregation, %: -8
- compound: "CCOc1ccc(OCC)c(NC(=O)C2CCN(c3ncccn3)CC2)c1"
  inhibition of aggregation, %: 10.9
- compound: "Cc1cc(C)c2ccc(N)nc2c1O"
  inhibition of aggregation, %: 22.6
- compound: "O=C(CCN1C(=O)c2ccccc2C1=O)N1CCN(C(=O)c2ccccc2)CC1"
  inhibition of aggregation, %: 7.3
- compound: "COc1ccc(Oc2c(C)oc3cc(OC(=O)N4CCOCC4)ccc3c2=O)cc1"
  inhibition of aggregation, %: 11.1
- compound: "O=C(CN1CCC(c2nc3ccccc3s2)CC1)NCc1cccs1"
  inhibition of aggregation, %: 12.8
- compound: "CCOC(=O)c1ccc(N(CC(=O)NC2CCCC2)C(=O)CNC(=O)c2ccco2)cc1"
  inhibition of aggregation, %: 5.5
- compound: "CC1(C)COCN1S(=O)(=O)c1ccc(C(=O)Nc2nnc(-c3ccc(Cl)s3)o2)cc1"
  inhibition of aggregation, %: -2.8
- compound: "CCOc1ccccc1OCCCCN1CCCC1"
  inhibition of aggregation, %: 15.7
- compound: "COC(=O)c1ccc(NC(=O)CN2CCN(c3ccc(Cl)cc3)CC2)cc1"
  inhibition of aggregation, %: 12.9
- compound: "COc1ccc(CC(=O)NC2CCN(CC(=O)Nc3ccc4c(c3)OCCO4)CC2)cc1OC"
  inhibition of aggregation, %: -5.8
- compound: "CC(=O)c1cccc(NC(=O)N2CCCc3ccccc32)c1"
  inhibition of aggregation, %: -9.8
- compound: "Fc1ccc(Cn2nnc(-c3ccc(CN4CCOCC4)cc3)n2)cc1"
  inhibition of aggregation, %: 11.5
- compound: "COC(=O)c1ccc(NC(=O)C(C)N2C(=O)c3ccccc3C2=O)cc1 (configuration not stated)"
  inhibition of aggregation, %: -7.5
- compound: "COC(=O)c1sccc1NC(=O)c1csc(C)c1"
  inhibition of aggregation, %: 0.6
- compound: "CCSc1nnc(NC(=O)c2ccccn2)s1"
  inhibition of aggregation, %: 13.2
- compound: "CCOCCCNC(=O)C1CCN(S(=O)(=O)c2c(C)noc2/C=C\\c2ccc(OC)cc2)CC1"
  inhibition of aggregation, %: 32.8
- compound: "CCn1c(=O)c(C(=O)Nc2cccnc2)c(O)c2ccccc21"
  inhibition of aggregation, %: 7
- compound: "COC(=O)CNC(=O)COC(=O)c1cc(Cl)cc(Cl)c1N"
  inhibition of aggregation, %: -2
- compound: "CCN(C(=O)c1cc(Cl)ccc1OC)c1ccccc1"
  inhibition of aggregation, %: -20.6

###

method: inhibitors of TNFa-induced NFkB p65 translocation, primary screen, imaging, HUVEC, MLSMR starter and 10KST1 sets (AID 438);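 further: compound added about 3h40 before a 20 min TNFalpha stimulation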
condition-set: HUVEC TNFa-induced p65 nuclear translocation; measured here: nuclei count (cytotoxicity indicator), at 2.08 µM
measurement-name: cell count

- molecule: "CCn1cc(S(=O)(=O)CC(=O)Nc2ccc(OC)cc2)c2ccccc21"
  observed-result: 624
- molecule: "CC1CCCCN1C(=O)Cn1nnc(-c2cccnc2)n1 (stereo not given)"
  observed-result: 493
- molecule: "Cc1c2cnn(CC(=O)N3CCN(c4ncccn4)CC3)c(=O)c2c(C)n1Cc1ccc(F)cc1"
  observed-result: 405
- molecule: "O=C(Cn1cnc2c(nnn2Cc2ccc(Cl)cc2)c1=O)NCC1CCCO1 (stereo not given)"
  observed-result: 641
- molecule: "O=c1[nH]cnc2c1nc(SCc1ccccc1)n2C1OC(CO)C(O)C1O (stereo not given)"
  observed-result: 459

###

method: inhibitors of TNFa-induced NFkB p65 translocation, primary screen, imaging, HUVEC, MLSMR starter and 10KST1 sets (AID 438);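 further: compound added about 3h40 before a 20 min TNFalpha stimulation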;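 on inhibition: signal is the nuclear over cytoplasmic p65 intensity ratio per well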
condition-set: HUVEC TNFa-induced p65 nuclear translocation; at 2 µM, stronger effect = higher value, 0% TNFa-plus-vehicle, 100% no-TNFa wells
measurement-name: inhibition (%)

- compound: "CC(C)n1c(NCc2c[nH]c3ccccc23)nc2ccccc21"
  measurement-name: "inhibition"
  scale-unit: "%"
  observed-result: 1
- compound: "COc1ccc(Cl)cc1-c1n[nH]c(=S)o1"
  measurement-name: "inhibition"
  scale-unit: "%"
  observed-result: 8.2
- compound: "COc1ccc(-n2c(Cc3cccn3C)nnc2SCC(=O)Nc2cccc(C)c2C)cc1"
  measurement-name: "inhibition"
  scale-unit: "%"
  observed-result: 4.6
- compound: "Cc1cc(=O)n(CCO)c(O)c1C#N"
  measurement-name: "inhibition"
  scale-unit: "%"
  observed-result: 0.3
- compound: "COc1ccc(-c2nc(CSCC(=O)N3CCN(c4cccc(C)c4)C(C)C3)c(C)o2)cc1OC (stereo unspecified)"
  measurement-name: "inhibition"
  scale-unit: "%"
  observed-result: 2.3
- compound: "CCCOC(=O)c1[nH]c2c(c1C)C(=O)CC(c1cc(OC)c(OC)c(OC)c1)C2 (stereo unspecified)"
  measurement-name: "inhibition"
  scale-unit: "%"
  observed-result: 1.2
- compound: "COCCn1nnnc1CN(CCCN1CCOCC1)Cc1cc2c(C)ccc(C)c2[nH]c1=O"
  measurement-name: "inhibition"
  scale-unit: "%"
  observed-result: -8.8
- compound: "Cc1cccc(Nc2nc3c(c(=O)n(C)c(=O)n3C)n2Cc2ccccc2)c1"
  measurement-name: "inhibition"
  scale-unit: "%"
  observed-result: 7.2
- compound: "C/C(=N\\O)C(C)/[N+]([O-])=C/c1nc(C)c(C)n1O (stereo unspecified)"
  measurement-name: "inhibition"
  scale-unit: "%"
  observed-result: 0.2
- compound: "CCOc1ccc(CN2C(=O)c3ccccc3C2C(=O)NCc2cccnc2)cc1 (stereo unspecified)"
  measurement-name: "inhibition"
  scale-unit: "%"
  observed-result: -1.1
- compound: "CC1=C(C(=O)OCc2ccccc2)C(c2ccc(C)o2)C2=C(CCCC2=O)N1 (stereo unspecified)"
  measurement-name: "inhibition"
  scale-unit: "%"
  observed-result: 1.9
